Target: ABCG2 (Homo sapiens, UniProt Q9UNQ0)
Sequence (Q9UNQ0 whole entry): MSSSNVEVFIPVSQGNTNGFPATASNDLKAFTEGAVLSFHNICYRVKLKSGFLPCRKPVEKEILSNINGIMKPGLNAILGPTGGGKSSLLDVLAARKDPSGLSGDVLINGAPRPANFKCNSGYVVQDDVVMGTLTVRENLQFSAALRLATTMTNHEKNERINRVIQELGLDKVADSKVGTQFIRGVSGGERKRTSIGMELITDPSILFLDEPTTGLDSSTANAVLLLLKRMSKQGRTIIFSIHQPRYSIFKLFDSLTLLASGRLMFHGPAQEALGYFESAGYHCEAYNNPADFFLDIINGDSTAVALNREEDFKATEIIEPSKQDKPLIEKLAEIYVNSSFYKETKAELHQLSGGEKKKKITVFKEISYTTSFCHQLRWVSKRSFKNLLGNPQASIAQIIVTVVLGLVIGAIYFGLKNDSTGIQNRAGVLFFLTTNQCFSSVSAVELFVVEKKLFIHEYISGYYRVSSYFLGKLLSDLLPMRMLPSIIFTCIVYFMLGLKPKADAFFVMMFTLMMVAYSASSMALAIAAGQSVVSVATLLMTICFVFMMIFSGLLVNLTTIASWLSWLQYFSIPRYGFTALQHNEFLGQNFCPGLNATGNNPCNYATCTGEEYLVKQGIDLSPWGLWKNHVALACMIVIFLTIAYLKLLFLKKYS
Assay: Inhibition of human ABCG2 in human R5 cells assessed as inhibition of mitoxantrone efflux at 10 uM measured by flow cytometric analysis relative to control
Format: cell-based
Details: probe mitoxantrone
Observable: inhibition at 10 µM (%)
State just the number; it will be interpreted in %.

Record excerpt, results attached:
Query string: State its inhibition at 10 µM: Fc1ccc(C#CC2=NC3=NC=NC3C(NCc3cccc(Cl)c3)=N2)cc1F (stereo not drawn)
Result string: 81.4

Query string: State its inhibition at 10 µM: CNC(=O)C12CC1[C@@H](n1cnc3c(NCc4cccc(Cl)c4)nc(C#Cc4ccc(F)c(F)c4)nc31)[C@H](O)[C@@H]2O (single isomer, unassigned)
Result string: 99.2

Query string: State its inhibition at 10 µM: CNC(=O)C12CC1[C@@H](n1cnc3c(NCc4cccc(-n5cc(-c6ccc(F)c(F)c6)nn5)c4)nc(C#Cc4ccc(F)c(F)c4)nc31)[C@H](O)[C@@H]2O (single isomer, unassigned)
Result string: 92.5

Query string: State its inhibition at 10 µM: COc1cc(CCNC2=NC(C#Cc3ccc(Cl)s3)=NC3=NC=NC32)ccc1O (stereo not drawn)
Result string: 110

Query string: State its inhibition at 10 µM: CNC(=O)C12CC1[C@@H](n1cnc3c(NCc4cccc(-n5cc(-c6ccc(F)c(F)c6)nn5)c4)nc(C#Cc4ccc(F)cc4)nc31)[C@H](O)[C@@H]2O (single isomer, unassigned)
Result string: 102

Query string: State its inhibition at 10 µM: CNC(=O)C12CC1[C@@H](n1cnc3c(NC4CC4c4ccc(F)c(F)c4)nc(C#Cc4cccc(F)c4)nc31)[C@H](O)[C@@H]2O (single isomer, unassigned)
Result string: 100

Query string: State its inhibition at 10 µM: CCOC(=O)C12CC1[C@@H](n1ccc3c(NCCc4ccccc4)nc(C#Cc4ccccc4)nc31)[C@H](O)[C@@H]2O (single isomer, unassigned)
Result string: 92.6

Let us move to another entry and its inhibition at 10 µM.
Query string: State its inhibition at 10 µM: CCOC(=O)C12CC1[C@@H](n1ccc3c(NCCCc4ccc(OC)c(O)c4)nc(C#Cc4ccc(Cl)s4)nc31)[C@H](O)[C@@H]2O (single isomer, unassigned)
Result string: 109

----------
// reported activity at 20 min, 10 µM per item
Target: ABCG2 (Homo sapiens)
Test: Activation of human ABCG2-mediated ATPase activity preincubated for 2 mins followed by ATP addition at 10 uM and measured after 20 mins by colorimetric assay relative to control
Settings: read-out: Activity
State just the number; it will be interpreted in %.

Record excerpt, results attached:
Query string: Look up ABCG2 (Homo sapiens) data: activity at 20 min, 10 µM of CNC(=O)C12CC1[C@@H](n1cnc3c(NC4CC4c4ccc(F)c(F)c4)nc(C#Cc4cccc(F)c4)nc31)[C@H](O)[C@@H]2O (single isomer, unassigned) , then report it.
Result string: 46.7

Query string: Look up ABCG2 (Homo sapiens) data: activity at 20 min, 10 µM of CNC(=O)C12CC1[C@@H](n1cnc3cnc(C#Cc4ccc(F)c(F)c4)nc31)[C@H](O)[C@@H]2O (single isomer, unassigned) , then report it.
Result string: 64.2

Query string: Look up ABCG2 (Homo sapiens) data: activity at 20 min, 10 µM of CNC(=O)C12CC1[C@@H](n1cnc3c(C)nc(C#Cc4ccc(F)c(F)c4)nc31)[C@H](O)[C@@H]2O (single isomer, unassigned) , then report it.
Result string: 72.6

Let us move to another entry and its activity at 20 min, 10 µM.
Query string: Look up ABCG2 (Homo sapiens) data: activity at 20 min, 10 µM of CNC(=O)C12CC1[C@@H](n1cnc3c(NCc4cccc(Cl)c4)nc(C#Cc4ccc(F)cc4)nc31)[C@H](O)[C@@H]2O (single isomer, unassigned) , then report it.
Result string: 49.3
